- System: NCI-H460 lung
- experimentalProtocol: NCI-60 one-dose screen, 48 h (100 = growth as untreated, 0 = no growth, -100 = all killed)
- experimentalContext: 10 µM unless noted
Compounds without any hit were thinned out: in the full panel of roughly 83,000, 20% have a hit.
measuredMetric: growth (%)

O=[N+]([O-])c1ccc(Oc2ccccc2Cl)c([N+](=O)[O-])c1 = 105
COC(=O)c1nc(=S)[nH]c(C(=O)OC)c1C(=O)c1ccc(Cl)c(Cl)c1 = 111
O=C1C=Cc2ccccc2/C1=C/c1nc(-c2ccccc2)oc1O = 98.5
Nc1cc(-c2ccccc2)ccc1O = 102
CCCCCCCCCCCC[n+]1ccccc1 (tested in a mixture with another compound) = 0.69

###

- Tested on: SW-620 colon
- experimentalProtocol: NCI-60 one-dose screen, 48 h (100 = growth as untreated, 0 = no growth, -100 = all killed)
- experimentalContext: 10 µM unless noted
Compounds without any hit were thinned out: in the full panel of roughly 83,000, 20% have a hit.
Property: growth; scope: individual compounds
measuredMetric: growth (%)

CC(=O)c1ccc2c(c1)CCc1ccccc1-2 = 102
Cc1cc(C)c(C#N)c(Sc2nc(C)c([N+](=O)[O-])c(C)c2C#N)n1 = 19.2
OC(c1cc2ccc(C(F)(F)F)cc2c2cc(C(F)(F)F)ccc12)C1CCCCN1 (stereo unspecified) = -100
S=C1SCN(Cc2cccs2)CN1Cc1cccs1 = 82.4
C/C(=N\NC(=S)N1CC2CCC(CC2)C1)c1ccccn1 = 14.3
O=C1C=CC(=O)N1C1CCCCCCCCCCC1 = -27.4

###

- Test system: HT29 colon
- experimentalProtocol: NCI-60 one-dose screen, 48 h (100 = growth as untreated, 0 = no growth, -100 = all killed)
- experimentalContext: 10 µM unless noted
About 83,000 compounds went through this panel and 20% of them were active in at least one assay; those are over-represented in the sample as a whole. Where a SMILES comes first, the peptide text is derived from it. [ ]: non-standard residue; d: D form. ξ: configuration not given here. ξD = NC(CC(=O)O)C(=O)O
measuredMetric: growth (%)

CCCCCCCCCCCC1N=C(N)N=C(N)N1c1cccc(Br)c1 (configuration not stated) = -81.8
NNc1cccc([N+](=O)[O-])c1 = 99.6
Cc1ccccc1NC(=O)Cc1csc2[n+]1C(=O)/C(=C/c1ccc([N+](=O)[O-])cc1)S2 = 113
CCCCCC[C@@H](O)C/C=C\CCCCCCCC(=O)OCCOC = 101
NCC(=O)NC(CC(=O)O)C(=O)O (configuration not stated) (H-Gly-[ξD]-OH) = 98.2
O=C(O)c1cc2c(s1)C(=O)c1sccc1C2=O = 65.8
Cc1cc(C(N)=O)cc(C)c1C(=O)OCCCl = 106
CC12CCC(O)CC1=CCC1C2CCC2(C)C3=NN=CC3CC12 (configuration not stated) = 99
O=C(CCl)N(c1ccccc1)c1ccccc1 = 114
NNc1ccc(Cl)cc1Cl = 94.2
CCOc1ccc2c(c1)/C(=C\C=C\C1CC(C)C3CC(OCC)CCC3N1CC)CC(C)N2CC (configuration not stated) = -33.4
O=C1C=CC(=O)c2c(O)c(CO)c(CO)c(O)c21 = 60

###

- Tested on: K-562 leukemia
- experimentalProtocol: NCI-60 one-dose screen, 48 h (100 = growth as untreated, 0 = no growth, -100 = all killed)
- experimentalContext: 10 µM unless noted
Compounds without any hit were thinned out: in the full panel of roughly 83,000, 20% have a hit.
measuredMetric: growth (%)

Nc1ccc(-c2ccc(N)c(S(=O)(=O)O)c2)cc1S(=O)(=O)O = 118
NC(=S)N/N=C/c1ncccc1O = 24
O=[n+]1c2ccccc2n([O-])c2cc(Cl)ccc21 = 45.3
O=C(Nc1ccc(Cl)c(Cl)c1)Nc1ccccc1O = 48.7
O=C(c1ccccc1)c1ccc(O)c2ncccc12 = 15
CCN1CCCC(Nc2cc(C)nc(/N=C(/N)Nc3ccc(Cl)c(Cl)c3)n2)C1 (stereo not given) = -69.2
O=[N+]([O-])C=C(c1ccccc1)c1ccccc1 = 29.4
O=C1C=CC(=O)c2c(O)c(CO)c(CO)c(O)c21 = 91.7
O=C(c1ccccc1)c1cc2ccccc2oc1=O = 111
CCSc1nc2ccccc2o1 = 100
C[n+]1ccccc1C[n+]1ccccc1 = 87.8
COc1ccc2c(c1OC)OCC(CN(C)C)C2=O (stereo not given) = -100
CCCCCCCCCCCC1N=C(N)N=C(N)N1c1cccc(Br)c1 (stereo not given) = -20.1
COC1=CC(=O)c2c(O)c3c(c(O)c2C1=O)CC(C)(O)OC3 (stereo not given) = 13.4
CC1(C)OC2C(COC(c3ccccc3)(c3ccccc3)c3ccccc3)OC(c3c[nH]c4c(N)ncnc34)C2O1 (stereo not given) = 32.4
O=C(Cc1nc2cc(Cl)c(Cl)cc2nc1CC(=O)c1ccccc1)c1ccccc1 = 47.4
N=C1C=C(N)C(=O)c2ccccc21 = -4.96
CN=C(N)N/N=C(\c1ccccc1)c1ccc(Br)cc1 = -6.02
Cc1cc(N/N=C/c2ccccn2)nc2ccccc12 = 9.21
c1ccc(-c2cc3cc4ccccc4cn3c2)cc1 = 64.3
O=C1C=CC(=O)N1c1cccc2c1CCCC2 = 57.1
COc1ccc(/C=C2/C(=O)ON=C2C)cc1 = 100
CCc1cccc(CC)c1N1C(=O)C=CC1=O = 23.8
COc1cc(/C=C/c2ccnc3ccccc23)cc(OC)c1OC = 8.29
COc1cc(NC(=O)C2=C(C)NC(C)=C(C(=O)Nc3cc(OC)c(Cl)cc3OC)C2c2cccc([N+](=O)[O-])c2)c(OC)cc1Cl = 33.4

###

Property: growth; scope: individual compounds
- Tested on: NCI/ADR-RES ovarian
- experimentalProtocol: NCI-60 one-dose screen, 48 h (100 = growth as untreated, 0 = no growth, -100 = all killed)
- experimentalContext: 10 µM unless noted
This is part of a sample that, as a whole, favours compounds with a hit. Of some 83,000 tested, about 20% had one in any assay.
measuredMetric: growth (%)

S=C(SSC(=S)N1CCOCC1)N1CCOCC1 = 106
O=C(c1ccccc1)C(Br)[N+](=O)[O-] (stereo unspecified) = 101
CCc1cnc2ccccc2c1/C=C/c1ccc(N(C)C)cc1 = 21.8
O=C1C=CC(=O)N1c1cccc2c1CCCC2 = 112
O=C1C=CC(=O)N1c1ccccc1 = 97.7
[Cl-].[Rh+3].c1ccc(-c2ccnc3c2ccc2c(-c4ccccc4)ccnc23)cc1.c1ccc(-c2ccnc3c2ccc2c(-c4ccccc4)ccnc23)cc1.c1ccc(-c2ccnc3c2ccc2c(-c4ccccc4)ccnc23)cc1 = 95.7
N=C(N)Sc1cccc[n+]1[O-] = 53.5
CC(=O)c1c(O)c(C)c(O)c2c1OC1=CC(=O)C(C(C)=O)C(=O)C12C (stereo unspecified) = 63.4
O=C(c1ccccc1)C(Br)C(Br)c1ccccc1 (stereo unspecified) = 117
O=C(Cc1ccccc1)C(F)(F)F = 104
Cc1cc(C(=C2C=CC(=Nc3ccccc3)C=C2)c2ccc(Nc3ccccc3)cc2)ccc1N = -46.7

###

- Test system: K-562 leukemia
- experimentalProtocol: NCI-60 one-dose screen, 48 h
- experimentalContext: 10 µM unless noted
The panel holds about 83,000 compounds, 20% with a hit somewhere; the sample as a whole holds those more often. Activity calls are given as the source filed them. The calls were made as follows: active = growth percent below 10; inactive = the rest. *1 amine or outer side, *2 acyl side, *3 side chain or, on linkers, in order; H or OH if unused. Where a SMILES comes first, the peptide text is derived from it. [ ]: non-standard residue; d: D form. The star is where a group is joined. X5 = CCC(=O)CC1CC(C)CC(C(=O)[*:2])N1[*:1]; X4 = CCCCCCCCC(C)C(=O)*; Aib = CC(C)(N)C(=O)O; X6 = CC(CN(C)CCO)N*
Labels: active, inactive

O=C1C=Cc2ccccc2/C1=C/c1nc(-c2ccccc2)oc1O = inactive
CCCCCCC1N=C(N)N=C(N)N1c1cccc(Cl)c1 (configuration not stated) = inactive
CCOc1ccc(Nc2nc3c(s2)C(=O)c2ccccc2C3=O)cc1 = inactive
O=C(/C=C/C(Cl)(Cl)Cl)Nc1ccc(Cl)cc1 = inactive
CC(C)(C)c1ccc(O)c(-c2ccccc2)c1 = inactive
Cc1ccc2cccc(OC(=O)Nc3cccc(C(F)(F)F)c3)c2n1 = inactive
CCCCCCCCCCCCCCCCSC(=NCC)NCC = active
CCN(CC)CC(O)c1cc(-c2ccc(Cl)cc2)nc2cc(Cl)ccc12 (configuration not stated) = active
NC(=S)N/N=C\c1nccc2c(N)cccc12 = inactive
CCOC(=O)NC(/C=C/c1ccccc1)NC(=O)OCC = inactive
O=[N+]([O-])/C(=C/c1ccccc1)c1ccccc1 = inactive
Cc1onc(-c2ccccc2)c1C(=O)N/N=C/c1cc(Cl)cc(Cl)c1O = inactive
CCCCCCCCC(C)C(=O)N1CCCC1C(=O)N1C(CC(=O)CC)CC(C)CC1C(=O)NC(C)C(=O)NC(C)(C)C(=O)NC(C)(C)C(=O)NC(C(=O)NC(C)C(=O)NC(C)(C)C(=O)NC(C)(C)C(=O)NC(C)CN(C)CCO)C(C)CC (configuration not stated) (X4-P[X5]A[Aib][Aib]IA[Aib][Aib]-X6; configuration not given here) = active
Cc1c(O)ccc(SC#N)c1C = inactive
Clc1ccc(Cc2nc3ccccc3s2)cc1 = inactive
CCN(CC)CC(O)CNc1ccc(NCC2CO2)c2c1C(=O)c1ccccc1C2=O (configuration not stated) = active
O=C1C=CC(=O)N1c1cc(Cl)c(Cl)cc1Cl = inactive
Fc1ccc(NCCS)cc1 = inactive
CCCCCCCCCCCCSC(=N)N = active
CCOc1ccc(C(C[N+](=O)[O-])Sc2ccccc2N)cc1 (configuration not stated) = active
CC(=O)c1c(O)c(C)c(O)c2c1OC1=CC(=O)C(C(C)=O)C(=O)C12C (configuration not stated) = inactive
O=C(/C=C/c1ccccc1)c1ccccc1O = inactive
CN(C)CCN(C)CC(C)(C)C(=O)/C=C/c1ccc(Cl)c(Cl)c1 = active
C/C(=N/NC(N)=S)c1ccc(C)cc1 = inactive
O=C(/C(Cl)=N/O)c1ccc(-c2ccccc2)cc1 = inactive
N#CC1c2ccccc2C=CN1C(=O)CCCl (configuration not stated) = inactive
Cc1cc(C(=O)c2ccc(Cl)cc2)ccc1O = inactive
